Biological target: AQ STING (G230A-R293Q) (Homo sapiens, UniProt Q86WV6, G230A/H232R/R293Q)
Construct: truncated human WT STING or AQ STING (amino acid residues 140-343); 8xHis (N, cleaved yes); SUMO (N, cleaved yes); made in house; host or cells: E. coli Rosetta-gami B (DE3)
Sequence (Q86WV6 140-343 G230A/H232R/R293Q): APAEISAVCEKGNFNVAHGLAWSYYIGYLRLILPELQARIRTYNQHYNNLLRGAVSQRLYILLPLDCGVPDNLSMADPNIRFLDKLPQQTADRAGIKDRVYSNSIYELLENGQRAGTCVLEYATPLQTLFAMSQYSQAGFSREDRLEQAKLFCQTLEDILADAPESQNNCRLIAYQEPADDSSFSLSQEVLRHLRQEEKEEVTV
Assay: Differential scanning fluorimetry (DSF) with AQ STING
Type: binding
Conditions: thermal shift, truncated human AQ STING 0.1 mg/ml, 150 μM CDN
Record form. Attribute: DSF ΔTm AQ STING. Fill in for each entry.
Include the unit after the number when you answer.

Task: Request: DSF ΔTm AQ STING, test system AQ STING (G230A-R293Q) (Homo sapiens, UniProt Q86WV6, G230A/H232R/R293Q), entry Nc1ncnc2c1ncn2[C@@H]1O[C@@H]2COP(=O)(S)O[C@@H]3[C@H](F)[C@@H](COP(=O)(S)O[C@H]2[C@H]1F)C[C@H]3n1cnc2c(=O)[nH]cnc21 (single isomer, unassigned) [Compound 128c]
Output: 18.2 °C

Task: Give AQ STING (G230A-R293Q) (Homo sapiens, UniProt Q86WV6, G230A/H232R/R293Q) DSF ΔTm AQ STING for Nc1ncnc2c1ncn2[C@@H]1O[C@@H]2COP(=O)(O)OC3C(O)[C@@H](COP(=O)(O)OC2C1O)C[C@H]3n1cnc2c(=O)[nH]cnc21 (stereo partly shown)
Output: 17.0 °C

Task: I'm curious: which DSF ΔTm AQ STING was measured for Nc1ncnc2c1ncn2[C@@H]1O[C@@H]2COP(=O)(S)O[C@@H]3[C@H](F)[C@@H](COP(=O)(S)O[C@H]2[C@H]1F)C[C@H]3n1cnc2c(=O)[nH]cnc21 (single isomer, unassigned) [Compound 128d] tested on AQ STING (G230A-R293Q) (Homo sapiens, UniProt Q86WV6, G230A/H232R/R293Q)?
Output: 21.3 °C

Task: Provide value of DSF ΔTm AQ STING for this record tested with AQ STING (G230A-R293Q) (Homo sapiens, UniProt Q86WV6, G230A/H232R/R293Q): Nc1ncnc2c1ncn2[C@@H]1O[C@@H]2COP(=O)(S)O[C@@H]3[C@H](F)[C@@H](COP(=O)(S)O[C@H]2[C@H]1F)C[C@H]3n1cnc2c(=O)[nH]cnc21 (single isomer, unassigned) [Compound 128b]
Output: 13.8 °C

###

Would you mind telling me the reported ΔTm at 150 µM of each entry?
Molecular target: WT STING (Homo sapiens, UniProt Q86WV6, H232R)
Sequence (Q86WV6 140-343 H232R): as the sequence (Q86WV6 140-343 G230A/H232R/R293Q) above, with A91G, Q154R counted along it
Assay: Differential scanning fluorimetry (DSF) with WT STING
Format: binding
Parameters: truncated human WT STING or AQ STING (amino acid residues 140-343); 8xHis (N, cleaved yes); SUMO (N, cleaved yes); made in house; host or cells: E. coli Rosetta-gami B (DE3)
Conditions: thermal shift, truncated human WT STING 0.1 mg/ml, 150 μM CDN; read-out: DSF ΔTm WT STING
State the answer as a number, implicitly in °C.

Task: Fill in the blank: the reported ΔTm at 150 µM of Nc1ncc2ncn([C@@H]3O[C@@H]4COP(=O)(O)OC5C(O)[C@@H](COP(=O)(O)OC4C3O)C[C@H]5n3cnc4c(=O)[nH]cnc43)c2n1 (some centres unmarked) is ____.
Output: 5.2

Task: Any idea what its ΔTm at 150 µM is? The compound is Nc1nc2c(ncn2[C@@H]2C[C@@H]3COP(=O)(S)OC4C(O)[C@H](n5cnc6c(N)ncnc65)O[C@@H]4COP(=O)(O)OC2C3O)c(=O)[nH]1 (some centres unmarked)
Output: 8.5

Task: Record request: ΔTm at 150 µM value, item Nc1nc(N)c2ncn([C@@H]3O[C@@H]4COP(=O)(O)OC5C(O)[C@@H](COP(=O)(O)OC4C3O)C[C@H]5n3cnc4c(=O)[nH]c(N)nc43)c2n1 (some centres unmarked)
Output: 5.2

Task: Given the compound Nc1nc2c(ncn2[C@@H]2C[C@@H]3COP(=O)(O)OC4C(N)[C@H](n5cnc6c(N)ncnc65)O[C@@H]4COP(=O)(O)OC2C3O)c(=O)[nH]1 (some centres unmarked) , what is its reported ΔTm at 150 µM?
Output: 5.6

Task: Consider the compound Nc1nc2c(ncn2[C@@H]2C[C@@H]3COP(=O)(O)OC4C(O)[C@H](n5nnc6c(N)ncnc65)O[C@@H]4COP(=O)(O)OC2C3O)c(=O)[nH]1 (some centres unmarked) and give its measured ΔTm at 150 µM.
Output: 0.9

Task: Give the measured ΔTm at 150 µM of Nc1nc2c(ncn2[C@@H]2C[C@@H]3COP(=O)(O)OC4C(O)[C@H](n5cnc6c(S)ncnc65)O[C@@H]4COP(=O)(O)OC2C3O)c(=O)[nH]1 (some centres unmarked) .
Output: 2.2

Task: Quick check: ΔTm at 150 µM of Nc1ncnc2c1ncn2[C@@H]1O[C@@H]2COP(=O)(O)O[C@@H]3[C@H](F)[C@@H](COP(=O)(O)O[C@H]2[C@H]1F)C[C@H]3n1cnc2c(=O)[nH]cnc21 ?
Output: 8.2

Task: Query (compound): CSc1nc(N)nc2c1ncn2[C@@H]1O[C@@H]2COP(=O)(O)OC3C(O)[C@@H](COP(=O)(O)OC2C1O)C[C@H]3n1cnc2c(=O)[nH]c(N)nc21 (some centres unmarked) ; field requested: ΔTm at 150 µM
Output: 0.6

Task: Endpoint output: ΔTm at 150 µM of CNc1ncnc2c1ncn2[C@@H]1O[C@@H]2COP(=O)(O)OC3C(O)[C@@H](COP(=O)(O)OC2C1O)C[C@H]3n1cnc2c(=O)[nH]c(N)nc21 (some centres unmarked) . Value?
Output: 6

Task: Reported ΔTm at 150 µM, compound Nc1nc(N)c2ncn([C@@H]3O[C@@H]4COP(=O)(O)OC5C(O)[C@@H](COP(=O)(O)OC4C3F)C[C@H]5n3cnc4c(=O)[nH]c(N)nc43)c2n1 (some centres unmarked) : ____
Output: 9.4

Task: Which value of ΔTm at 150 µM has been reported for Nc1nc2c(ncn2[C@@H]2C[C@@H]3COP(=O)(O)OC4C(O)[C@H](n5cnc6c(N)nc(F)nc65)O[C@@H]4COP(=O)(O)OC2C3O)c(=O)[nH]1 (some centres unmarked) in the records?
Output: 7.9
